- test.summary: Selectivity index, ratio of EC50 for cytotoxicity against human MRC5 cells to EC50 for antitrypanosomal activity against Trypanosoma brucei brucei
- Assay type: toxicity, cell-based
- reported.conditions: read-out: Ratio EC50
Overview of reported selectivity ratio across a group of compounds:

smiles.data | rel | selectivity ratio
O=c1[nH]cnc2c1c(Cl)cn2[C@@H]1O[C@H](CO)[C@@H](O)[C@H]1O | > | 6
O=c1[nH]cnc2c1c(Br)cn2[C@@H]1O[C@H](CO)[C@@H](O)[C@H]1O | > | 1.2
O=c1[nH]cnc2c1ccn2[C@@H]1O[C@H](CO)C[C@H]1O | > | 2
O=c1[nH]cnc2c1c(Br)cn2[C@@H]1O[C@H](CO)C[C@H]1O | > | 7
O=c1[nH]cnc2c1c(-c1ccccc1)cn2[C@@H]1O[C@H](CO)[C@@H](O)[C@H]1O | > | 2
COc1ncnc2c1c(I)cn2[C@@H]1O[C@H](CO)[C@@H](O)[C@H]1O | = | 168
CCCOc1ncnc2c1c(Cl)cn2[C@@H]1O[C@H](CO)[C@@H](O)[C@H]1O | = | 34
Nc1nc(Cl)c2ccn([C@@H]3O[C@H](CO)[C@@H](O)[C@H]3O)c2n1 | > | 131
CC(C)Oc1ncnc2c1c(Cl)cn2[C@@H]1O[C@H](CO)[C@@H](O)[C@H]1O | > | 711
Nc1nc(Cl)c2c(Br)cn([C@@H]3O[C@H](CO)[C@@H](O)[C@H]3O)c2n1 | = | 316
COCCOc1ncnc2c1c(Cl)cn2[C@@H]1O[C@H](CO)[C@@H](O)[C@H]1O | = | 25
COc1ncnc2c1c(Br)cn2[C@@H]1O[C@H](CO)C[C@H]1O | = | 1

Entry source: ChEMBL document CHEMBL4680158
